Numbers sourced from PubChem BioAssay AID2060895.

- Tested on: PDC 899932-113-R3-J6 complex spheroid viability
- Test protocol: Anticancer human tumor 899932-113-R3-J6-PDC patient-derived melanoma cell line growth inhibition [RAS]
- Condition context: second compound 3.16 µM; first compound 0.316 µM; stronger effect = lower value
Exercise: for every item that follows, state its recorded viability, T/C.
Return type: number; implicit unit %.

Ask: Report viability, T/C for CC(=O)OC12COC1CC(O)C1(C)C(=O)C(O)C3=C(C)C(OC(=O)C(O)C(NC(=O)OC(C)(C)C)c4ccccc4)CC(O)(C(OC(=O)c4ccccc4)C21)C3(C)C (stereo not drawn) + C#Cc1c(F)ccc2cc(O)cc(-c3ncc4c(N5CC6CCC(C5)N6)nc(OCC56CCCN5CC(F)C6)nc4c3F)c12 please.
Result: 37.5

Ask: Report viability, T/C for CC(C)NCC(C(=O)N1CCN(c2ncnc3c2C(C)CC3O)CC1)c1ccc(Cl)cc1 (stereo not drawn) + C#Cc1c(F)ccc2cc(O)cc(-c3ncc4c(N5CC6CCC(C5)N6)nc(OCC56CCCN5CC(F)C6)nc4c3F)c12 please.
Result: 97.6

Ask: Report viability, T/C for NC1c2ccccc2OC12CCN(c1cnc3c(N4CCCc5ncccc54)n[nH]c3n1)CC2 (stereo not drawn) + C#Cc1c(F)ccc2cc(O)cc(-c3ncc4c(N5CC6CCC(C5)N6)nc(OCC56CCCN5CC(F)C6)nc4c3F)c12 please.
Result: 135

* * *

- Test system: PDC 899932-113-R3-J6 complex spheroid viability
- Test protocol: Anticancer human tumor 899932-113-R3-J6-PDC cell line growth inhibition [RAS];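 also: spheroids exposed to agents for seven days before readout; 100% = DMSO vehicle control wells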
- Condition context: second compound 0.003 µM; first compound 0.03 µM; stronger effect = lower value
- Description: RAS pathway inhibitors in Combinations in Complex Spheroids A high-throughput screen of multi-cell type tumor spheroids was designed to identify active combinations of RAS pathway inhibitors and targeted small molecules. Complex spheroids include a stromal component modeled by human endothelial cells (HUVEC) and fibroblasts modeled by human mesenchymal stem cells (MSCs). […] Compounds. […] If the clinical Cmax for an agent had not been determined, the highest concentration tested was 10 microM. […]
Property measured: viability, T/C

Ask: GET /values?readout=viability, T/C&system=PDC 899932-113-R3-J6 complex spheroid viability&item= CCc1c2c(nc3ccc(O)cc13)-c1cc3c(c(=O)n1C2)COC(=O)[C@]3(O)CC + CCn1c(-c2cc(N3CCN(C)CC3)cnc2C(C)OC)c2c3cc(ccc31)-c1csc(n1)CC(NC(=O)C1CC1C)C(=O)N1CCCC(N1)C(=O)OCC(C)(C)C2
Result: 16.1%

Ask: GET /values?readout=viability, T/C&system=PDC 899932-113-R3-J6 complex spheroid viability&item= CC1(C)CCC(Nc2ncc(C(F)(F)F)c(-c3c[nH]c4c(P(C)(C)=O)c(C#N)ccc34)n2)CN1 (centres undefined) + CCn1c(-c2cccnc2C(C)OC)c2c3cc(ccc31)N1CCOC(CC(NC(=O)C(C(C)C)N(C)C(=O)C3(F)CCN(C(=O)C#CC(C)(C)N(C)C)CC3)C(=O)N3CCCC(N3)C(=O)OCC(C)(C)C2)C1
Result: 43.4%

Ask: GET /values?readout=viability, T/C&system=PDC 899932-113-R3-J6 complex spheroid viability&item= CCc1c2c(nc3ccc(O)cc13)-c1cc3c(c(=O)n1C2)COC(=O)[C@]3(O)CC + CCn1c(-c2cccnc2C(C)OC)c2c3cc(ccc31)N1CCOC(CC(NC(=O)C(C(C)C)N(C)C(=O)C3(F)CCN(C(=O)C#CC(C)(C)N(C)C)CC3)C(=O)N3CCCC(N3)C(=O)OCC(C)(C)C2)C1
Result: 46.7%

Ask: GET /values?readout=viability, T/C&system=PDC 899932-113-R3-J6 complex spheroid viability&item= CC1(C)CCC(Nc2ncc(C(F)(F)F)c(-c3c[nH]c4c(P(C)(C)=O)c(C#N)ccc34)n2)CN1 (centres undefined) + CCn1c(-c2cc(N3CCN(C)CC3)cnc2C(C)OC)c2c3cc(ccc31)-c1csc(n1)CC(NC(=O)C1CC1C)C(=O)N1CCCC(N1)C(=O)OCC(C)(C)C2
Result: 14.6%
